The measurements presented in this section are drawn from patent US20240174690A1.

- System: SAS cells
- experiment: SAS CTG proliferation assay (120 h) (HNSCC, wt amplified)
- Format: cell-based
reported metric: pIC50
// scale note: pIC50 = -log10(conc_M); give the bare number

> print(dat)
                                   molecule  measured
1  C[C@H](Oc1cc(N2CCNC[C@]23CCOC3)nc(-c2noc3c2CCC[C@@]32CCCc3sc(N)c(C#N)c32)n1)[C@@H]1CCCN1C [II-50]      7.39
2  C[C@H](Oc1cc(-n2ccc(C(=O)NC3COC3)n2)nc(-c2noc3c2CCC[C@@]32CCCc3sc(N)c(C#N)c32)n1)[C@@H]1CCCN1C [II-25]      8.05

Q: Quick check: pIC50 of C[C@@H]1CN(c2cc(O[C@@H](C)[C@@H]3C[C@@H](F)CN3C)nc(-c3noc4c3CCC[C@@]43CCCc4sc(N)c(C#N)c43)n2)CC2(CC2)N1 [II-17] ?
Result: 5.99

---

- assayed system: CYP3A4 (Homo sapiens (Human), UniProt P08684)
- Sequence (P08684 whole entry): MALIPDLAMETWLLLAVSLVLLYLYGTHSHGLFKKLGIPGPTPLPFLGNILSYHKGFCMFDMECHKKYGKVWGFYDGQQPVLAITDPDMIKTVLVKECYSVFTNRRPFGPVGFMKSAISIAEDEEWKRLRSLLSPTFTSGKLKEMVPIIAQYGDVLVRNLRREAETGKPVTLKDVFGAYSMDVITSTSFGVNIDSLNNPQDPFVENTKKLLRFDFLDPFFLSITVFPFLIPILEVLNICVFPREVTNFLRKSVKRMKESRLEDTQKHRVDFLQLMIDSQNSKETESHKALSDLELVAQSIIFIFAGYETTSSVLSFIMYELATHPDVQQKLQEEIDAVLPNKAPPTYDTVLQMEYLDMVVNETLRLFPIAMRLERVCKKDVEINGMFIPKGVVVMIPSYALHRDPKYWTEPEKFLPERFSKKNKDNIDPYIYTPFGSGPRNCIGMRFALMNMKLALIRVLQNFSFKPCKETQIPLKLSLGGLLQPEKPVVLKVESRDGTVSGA
- experiment: Mechanism based inhibition of CYP3A4 assay (MBI 3A4)
- Assay type: in vitro ADME
- condition info: hydroxy-midazolam formation after 30 min vs 0 min preincubation, 25 uM, human liver microsomes
reported metric: MBI 3A4
Quick note: number first, unit second.

Known results for molecules:
> print(dat)
                                   molecule  measured
1  C[C@H](Oc1cc([C@@H]2CCOC2)nc(-c2noc3c2CCC[C@@]32CCCc3sc(N)c(C#N)c32)n1)[C@@H]1CCCN1C [II-94]       71%
2  C[C@H](Oc1cc(N2CCC[C@@H](O)C2)nc(-c2noc3c2CCC[C@@]32CCCc3sc(N)c(C#N)c32)n1)[C@@H]1CCCN1C [II-59]       80%
3  C[C@H](Oc1cc(N2CCN(C)C3(CC3)C2)nc(-c2noc3c2CCC[C@@]32CCCc3sc(N)c(C#N)c32)n1)[C@@H]1CCCN1C [II-171]       63%
4  C[C@H](Oc1cc(-c2ccn3ncnc3c2)nc(-c2onc3c2CCC[C@@]32CCCc3sc(N)c(C#N)c32)n1)[C@@H]1CCCN1C [I-33]       73%

Q: Quick check: MBI 3A4 of C[C@H](Oc1cc(-c2ccn(Cc3ncco3)n2)nc(-c2noc3c2CCC[C@@]32CCCc3sc(N)c(C#N)c32)n1)[C@@H]1CCCN1C [II-128] ?
Result: 60%

Q: Quick check: MBI 3A4 of C[C@H](Oc1cc(-c2ccn(C)n2)nc(-c2noc3c2CCC[C@@]32CCCc3sc(N)c(C#N)c32)n1)[C@@H]1CCCN1C [II-96] ?
Result: 85%

---

- experiment: Solubility measurement (DMSO solution method), McIlvaine buffer pH 4.5 or 6.8
- Type: physicochemical
- condition info: aqueous buffer, kinetic from dmso stock; McIlvaine buffer pH 6.8; DMSO stock diluted to 250 μM; 24 h shaking at ambient temperature; read-out: solubility pH 6.8
reported metric: solubility at 24 h (µg/mL)
Reply with just the number (in µg/mL).

> print(dat)
                                   compound  output.unit  measured
1  C[C@H](Oc1cc(-n2nccn2)nc(-c2onc3c2CCC[C@@]32CCCc3sc(N)c(C#N)c32)n1)[C@@H]1CCCN1C [I-29]        µg/mL        82
2  C[C@H](Oc1cc(-n2ccc(-c3cn(CC4(C)COC4)nn3)n2)nc(-c2noc3c2CCC[C@@]32CCCc3sc(N)c(C#N)c32)n1)[C@@H]1CCCN1C [II-213]        µg/mL         2

Q: Quick check: solubility at 24 h of COCCNC(=O)c1ccn(-c2cc(O[C@@H](C)[C@@H]3CCCN3C)nc(-c3onc4c3CCC[C@@]43CCCc4sc(N)c(C#N)c43)n2)n1 [I-58] ?
Result: 94
